From: patent US20250304927A1

# TEST TARGET: T1, thermostable variant of Streptomyces mobaraensis transglutaminase (Streptomyces mobaraensis, UniProt P81453 79-407)
# T1 sequence: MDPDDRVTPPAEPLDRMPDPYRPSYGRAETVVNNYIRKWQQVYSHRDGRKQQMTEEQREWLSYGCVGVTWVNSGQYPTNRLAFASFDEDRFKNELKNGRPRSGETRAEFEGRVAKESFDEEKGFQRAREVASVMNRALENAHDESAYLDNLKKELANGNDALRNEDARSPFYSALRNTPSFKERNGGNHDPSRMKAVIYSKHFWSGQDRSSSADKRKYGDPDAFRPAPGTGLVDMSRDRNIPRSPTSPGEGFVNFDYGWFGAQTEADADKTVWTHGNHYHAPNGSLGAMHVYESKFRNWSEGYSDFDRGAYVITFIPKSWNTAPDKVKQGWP
# PROTOCOL TEXT: cell-based or functional assay
binders and their reported Improvement in pH responsiveness of inhibitory peptide relative to WT
RECORDED METRIC: Improvement in pH responsiveness of inhibitory peptide relative to WT

>>> result("MDNGAGEETKSYASTYRLTADDVANINALNESAPAASSAGPSFRAP [pro-peptide variant E14S]")
"> 5 fold"
>>> result("MDNGAGEETKSYAETYRLTAVDVANINALNESAPAASSAGPSFRAP [pro-peptide variant D21V]")
"> 1.2 fold"
>>> result("MDNGAGEETKSYATTYRLTADDVANINALNESAPAASSAGPSFRAP [pro-peptide variant E14T]")
"> 1.2 fold"
>>> result("MSNGAGEETKSYAETYRLTADDVANINALNESAPAASSAGPSFRAP [pro-peptide variant D2S]")
"> 1.2 fold"
>>> result("MDNGAGEETKSYAETYRLTADDVCNINALNESAPAASSAGPSFRAP [pro-peptide variant A24C]")
"> 1.2 fold"
>>> result("MDNGAGEETKSYAQTYRLTADDVANINALNESAPAASSAGPSFRAP [pro-peptide variant E14Q]")
"> 1.2 fold"
